Biological target: human factor XIa (Homo sapiens, UniProt P03951)
Construct: purchased Kordia
Sequence (P03951 388-625 limits assumed): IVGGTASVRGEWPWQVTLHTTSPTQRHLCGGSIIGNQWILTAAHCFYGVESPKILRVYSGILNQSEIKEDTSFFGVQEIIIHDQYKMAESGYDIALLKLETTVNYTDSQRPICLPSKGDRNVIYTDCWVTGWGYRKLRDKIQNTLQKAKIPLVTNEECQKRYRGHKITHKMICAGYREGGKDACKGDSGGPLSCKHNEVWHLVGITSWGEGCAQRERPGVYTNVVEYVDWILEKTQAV
Sequence (P03951 19-387 partner limits assumed): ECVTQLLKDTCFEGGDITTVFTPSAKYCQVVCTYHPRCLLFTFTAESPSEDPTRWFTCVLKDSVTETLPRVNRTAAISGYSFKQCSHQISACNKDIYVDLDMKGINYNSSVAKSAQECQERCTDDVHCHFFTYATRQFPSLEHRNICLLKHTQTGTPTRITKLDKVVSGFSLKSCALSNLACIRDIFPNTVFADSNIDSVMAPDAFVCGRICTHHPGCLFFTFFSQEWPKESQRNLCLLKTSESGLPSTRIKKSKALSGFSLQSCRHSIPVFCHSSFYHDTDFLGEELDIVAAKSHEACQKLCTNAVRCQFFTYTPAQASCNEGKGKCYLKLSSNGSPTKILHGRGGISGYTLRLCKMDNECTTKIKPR
Test: Measurement of FXIa inhibition (fluorogenic peptide substrate Boc-Glu(OBzl)-Ala-Arg-AMC)
Type: biochemical
Conditions: factor XIa from Kordia, 15 min preincubation, 30 min at 22° C., fluorescence
Method: The factor XIa inhibition of the inventive substances is determined using a biochemical test system which utilizes the reaction of a peptidic factor XIa substrate to determine the enzymatic activity of human factor XIa. Here, factor XIa cleaves from the peptic factor XIa substrate the C-terminal aminomethylcoumarin (AMC), the fluorescence of which is measured. The determinations are carried out in microtitre plates. […]
pIC50: −log10 of the molar value. Structures can show the parent of a compound that is named as a salt.
REPORTED_PROPERTY: pIC50

MOLECULE	VALUE_MEASURED
Cc1cc(C(=O)N2CCNCC2)ccc1-c1ccc(C[C@H](NC(=O)[C@H]2CC[C@H](CN)CC2)C(=O)Nc2ccc(-c3nn[nH]n3)cc2)cc1 [Example 16, hydrochloride]	8.41
Cc1cc(C(=O)NC(C)C)ccc1-c1ccc(C[C@H](NC(=O)[C@H]2CC[C@H](CN)CC2)C(=O)Nc2cc(Cl)c3oc(=O)[nH]c3c2)cc1 [Example 156, hydrochloride]	8.15
Cc1cc(C(=O)NC2CCCNC2=O)ccc1-c1ccc(C[C@H](NC(=O)[C@H]2CC[C@H](CN)CC2)C(=O)Nc2ccc3cn[nH]c3c2)cc1 (some centres unmarked) [Example 143, hydrochloride]	8.64

A = Cc1cc(C(=O)NC2CCC2)ccc1-c1ccc(C[C@H](NC(=O)[C@H]2CC[C@H](CN)CC2)C(=O)Nc2cc(Cl)c3oc(=O)[nH]c3c2)cc1 [Example 102, hydrochloride]
B = Cc1cc(C(=O)NC2CCN(CC(F)(F)F)CC2)ccc1-c1ccc(C[C@H](NC(=O)[C@H]2CC[C@H](CN)CC2)C(=O)Nc2ccc(-c3nn[nH]n3)cc2)cc1 [Example 46, hydrochloride]
Ask: Short answer wanted: higher pIC50, A or B ? Your choice should be expressed through its label.
Reply: B
